Below, each entry is listed with its recorded pIC50.
target_of_assay: AOC3 (Homo sapiens (Human), UniProt Q16853)
Sequence (Q16853 whole entry): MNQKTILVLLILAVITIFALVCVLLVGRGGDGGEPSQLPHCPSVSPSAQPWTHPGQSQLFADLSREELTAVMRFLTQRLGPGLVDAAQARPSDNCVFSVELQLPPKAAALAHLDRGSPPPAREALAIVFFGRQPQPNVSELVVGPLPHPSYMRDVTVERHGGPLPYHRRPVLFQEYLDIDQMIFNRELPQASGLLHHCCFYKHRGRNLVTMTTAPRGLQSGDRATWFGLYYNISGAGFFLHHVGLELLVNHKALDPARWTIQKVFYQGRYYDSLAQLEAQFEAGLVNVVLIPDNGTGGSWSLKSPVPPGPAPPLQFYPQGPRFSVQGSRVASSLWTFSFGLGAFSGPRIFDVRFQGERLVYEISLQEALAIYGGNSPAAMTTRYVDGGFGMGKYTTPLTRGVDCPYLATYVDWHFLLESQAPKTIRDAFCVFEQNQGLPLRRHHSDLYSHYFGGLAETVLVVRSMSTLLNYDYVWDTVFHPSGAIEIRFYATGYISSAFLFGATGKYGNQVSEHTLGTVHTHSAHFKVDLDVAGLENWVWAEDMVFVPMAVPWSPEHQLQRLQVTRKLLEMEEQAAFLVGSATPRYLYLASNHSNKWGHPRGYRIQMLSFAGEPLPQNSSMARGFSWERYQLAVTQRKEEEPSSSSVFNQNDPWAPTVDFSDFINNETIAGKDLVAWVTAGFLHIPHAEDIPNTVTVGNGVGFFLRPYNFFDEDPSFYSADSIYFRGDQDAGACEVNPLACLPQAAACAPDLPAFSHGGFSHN
protocol_description: MAO-Glo AOC3 assay (recombinant CHO cells overexpressing AOC3)
Assay type: biochemical
test_context: Table 1, read-out: AOC3 IC50
Keep it numeric: pIC50 is minus log10 of the concentration in mol/L.

These solved cases illustrate the format of a correct answer.
[[record]]
compound = "N=C(N)NC(=O)OCc1ccnc(N2CCN(c3ccncc3)CC2)c1F [Example 1.011]"
target_of_assay = "AOC3 (Homo sapiens (Human), UniProt Q16853)"
measurement_type = "pIC50"
quantitative_readout = 8.52

[[record]]
compound = "N#Cc1cnc(N2CCN(c3nccc(COC(=O)NC(=N)N)c3F)CC2)nc1 [Example 1.059]"
target_of_assay = "AOC3 (Homo sapiens (Human), UniProt Q16853)"
measurement_type = "pIC50"
quantitative_readout = 7.80

[[record]]
compound = "N=C(N)NC(=O)OCc1ccnc(N2CCC(c3ccccc3)CC2)c1F [Example 1.008]"
target_of_assay = "AOC3 (Homo sapiens (Human), UniProt Q16853)"
measurement_type = "pIC50"
quantitative_readout = 7.82


Asked: Find pIC50 (AOC3 (Homo sapiens (Human), UniProt Q16853)) for the entry N#Cc1ccc(N2CCN(c3nccc(COC(=O)NC(=N)N)c3F)CC2)cc1 [Example 1.055]
Given back: 8.70

Asked: Also, Cc1ccc(N2CCN(c3nccc(COC(=O)NC(=N)N)c3F)CC2)cc1 [Example 1.032] please.
Given back: 7.96

Asked: Also, COc1cccc(N2CCN(c3nccc(COC(=O)NC(=N)N)c3F)CC2)c1 [Example 1.068] please.
Given back: 8.15

Asked: Also, N#Cc1cccc(N2CCN(c3nccc(COC(=O)NC(=N)N)c3F)CC2)c1 [Example 1.054] please.
Given back: 9.00

Asked: Also, N=C(N)NC(=O)OCc1ccnc(N2CCC3(CCc4ccccc43)CC2)c1F [Example 1.053] please.
Given back: 7.08

Asked: Also, N=C(N)NC(=O)OCc1ccnc(N2CC3CC2CN3c2cccc(F)c2)c1F (stereo not drawn) [Example 1.066] please.
Given back: 6.56
